- MEASURED ON: LPL (lipoprotein lipase) (Mus musculus)
- Construct: endogenous in cells; host or cells: C2C12 cells, differentiated
- Sequence (P11152 28-474): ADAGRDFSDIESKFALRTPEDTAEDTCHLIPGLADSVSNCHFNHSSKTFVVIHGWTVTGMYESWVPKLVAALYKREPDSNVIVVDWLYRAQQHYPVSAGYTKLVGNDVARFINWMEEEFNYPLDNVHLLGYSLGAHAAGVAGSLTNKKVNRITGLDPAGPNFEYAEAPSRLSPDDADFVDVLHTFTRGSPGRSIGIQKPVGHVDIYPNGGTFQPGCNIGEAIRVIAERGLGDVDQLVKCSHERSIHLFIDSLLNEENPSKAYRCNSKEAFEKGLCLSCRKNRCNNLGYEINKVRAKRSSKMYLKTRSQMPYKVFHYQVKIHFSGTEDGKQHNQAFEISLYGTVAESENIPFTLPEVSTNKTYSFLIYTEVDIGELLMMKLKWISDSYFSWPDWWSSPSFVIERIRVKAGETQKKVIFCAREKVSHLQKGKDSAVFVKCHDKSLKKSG
- PROTOCOL DETAILS: Confirmation test of LPL activation effect in mouse skeletal muscle cells (C2C12 cells)
- Type: cell-based
- CONDITION INFO: amount of addition 30 μM, 8 hours exposure, vs control group
- Protocol: Human skeletal muscle cells (human skeletal muscle myoblasts) or mouse skeletal muscle cells (C2C12 cells) that were seeded onto plates, cultured, and differentiated were exposed to a 0.3% dimethyl sulfoxide-containing culture medium in which the compound of the present invention was dissolved (concentration: 10 μM or 30 μM). […] LPL activity in the supernatant was measured using an LPL activity assay kit (made by Roar Biomedical Inc.). […]
Where a name gives a salt, the structure may show the parent alone.
READOUT NAME: Rate of increase in LPL activity (%)

I = COc1cccc(-c2nc(-c3ccc(OCc4ccc(Cl)cc4F)cc3OC)c[nH]2)c1.Cl [Example 134]
II = COc1cc(OCc2ccc(C#N)cc2)ccc1-c1c[nH]c(-c2ccc(F)c(F)c2)n1 [Example 96]
III = COc1cc(OCc2ccccc2)ccc1-c1c[nH]c(-c2ccc(Cl)cc2)n1 [Example 123]
IV = COc1cc(-c2c[nH]c(-c3cccc(F)c3)n2)ccc1OCc1ccc(Cl)cc1.Cl [Example 79]
V = COc1ccc(-c2nc(-c3ccc(OCc4ccc(Br)cc4F)cc3OC)c[nH]2)cc1OC.Cl [Example 93]
# desc sort on Rate of increase in LPL activity across 5 compounds As an answer, provide the labels arranged in the order called for. I, V, II, IV, III
(I: 308%, V: 174%, II: 96%, IV: 64%, III: 42%)

a = COc1cc(-c2c[nH]c(-c3cc(Cl)cc(Cl)c3)n2)ccc1OCc1ccc(Cl)cc1 [Example 33]
b = COc1cc(-c2c[nH]c(-c3ccoc3)n2)ccc1OCc1ccccc1 [Example 26]
Which entry shows the lesser value of Rate of increase in LPL activity here, a or b ? The response must carry the label of the picked entry. b

a = COc1cc(-c2c[nH]c(-c3ccc(Cl)cc3)n2)ccc1OCc1ccccc1 [Example 4]
b = COc1cc(OCc2ccc(Cl)cc2)ccc1-c1c[nH]c(-c2ccc(Cl)cc2)n1 [Example 82]
c = COc1cc(-c2c[nH]c(-c3ccc(C(F)(F)F)cc3)n2)ccc1OCc1ccc(Br)cc1F [Example 1, hydrochloride]
Which order do these items take when sorted by rising Rate of increase in LPL activity? List them. # format: label list in the order the request specifies a, b, c
(a: 45%, b: 86%, c: 360%)

a = COc1cc(OCc2ccc(Cl)cc2)ccc1-c1c[nH]c(-c2cccc(F)c2)n1.Cl [Example 78]
b = COc1cc(-c2c[nH]c(-c3ccc(C)cc3)n2)ccc1OCc1ccccc1.Cl [Example 5]
c = COc1cc(OCc2ccc(Br)cc2F)ccc1-c1c[nH]c(-c2cc(Cl)cc(Cl)c2)n1 [Example 91]
Descending sort on Rate of increase in LPL activity required. Give me the labels in the order the question wants. c, a, b

====

- MEASURED ON: LPL (lipoprotein lipase) (Mus musculus)
- Construct: endogenous in cells; host or cells: C2C12 cells, differentiated
- PROTOCOL DETAILS: Confirmation test of LPL activation effect in mouse skeletal muscle cells (C2C12 cells)
- Format: cell-based
- CONDITION INFO: amount of addition 10 μM, 8 hours exposure, vs control group
READOUT NAME: Rate of increase in LPL activity (%)

I = COc1cc(-c2c[nH]c(-c3cccc(F)c3)n2)ccc1OCc1ccc(C#N)cc1
II = COc1cccc(-c2nc(-c3ccc(OCc4ccc(Cl)cc4F)cc3OC)c[nH]2)c1.Cl
III = COc1cc(OCc2ccccc2)ccc1-c1c[nH]c(-c2ccc(C(F)(F)F)cc2)n1
IV = COc1cccc(-c2nc(-c3ccc(OCc4ccccc4)cc3OC)c[nH]2)c1.Cl
Sort ascending by Rate of increase in LPL activity: all records listed above. Provide the ranking by listing each label in its place in the requested order. IV, I, II, III

a = COc1cc(OCc2ccc(Br)cc2F)ccc1-c1c[nH]c(-c2ccccc2C(F)(F)F)n1.Cl
b = COc1cc(-c2c[nH]c(-c3ccc(F)cc3)n2)ccc1OCc1cccc(C#N)c1.Cl
Lab note: check whether a or b has the lower measured Rate of increase in LPL activity. Could you answer with the label of the item you picked? a
(a: 32%, b: 53%)

====

READOUT NAME: melting point

- COc1cc(OCc2ccc(Br)cc2F)ccc1-c1c[nH]c(-c2ccc(C(C)(C)C)cc2)n1: 177 to 180 °C
- COc1cc(OCc2ccc(Br)cc2F)ccc1-c1c[nH]c(-c2ccc(C)cc2)n1: 160 to 162 °C
- COc1cc(-c2c[nH]c(-c3cccc(F)c3)n2)ccc1OCc1ccc(Cl)cc1.Cl: 235 to 237 °C

State the recorded melting point for this entry: COc1cc(OCc2ccccc2)ccc1-c1c[nH]c(-c2cc(F)cc(F)c2)n1.Cl 247 to 249 °C

====

Listing of recorded melting point by entry.

• COc1cc(OCc2ccc(Br)cc2F)ccc1-c1c[nH]c(-c2ccc(F)cc2)n1.Cl [Example 57] = > 250 °C
• COc1cc(OCc2ccc(Cl)cc2)ccc1-c1c[nH]c(-c2ccc(C)cc2)n1.Cl = 241 to 244 °C
• COc1cc(OCc2ccc(Cl)cc2)ccc1-c1c[nH]c(-c2cccc(F)c2)n1.Cl [Example 78] = 231 to 232 °C
• COc1cc(-c2cn(C)c(-c3ccc(C(F)(F)F)cc3)n2)ccc1OCc1ccccc1 [Example 6] = 138 to 139 °C
• COc1cc(-c2c[nH]c(-c3ccc(C(F)(F)F)cc3)n2)ccc1OCc1ccc(C#N)cc1 [Example 55] = 231 to 233 °C
• COc1cc(-c2c[nH]c(-c3ccccc3)n2)ccc1OCc1ccc(Cl)cc1 [Example 2] = 87 to 89 °C
• COc1cc(-c2c[nH]c(-c3ccsc3)n2)ccc1OCc1ccc(Br)cc1F.Cl [Example 69] = 251 to 252 °C
• COc1cc(-c2c[nH]c(-c3cccc(C(F)(F)F)c3)n2)ccc1OCc1ccc(Br)cc1F [Example 51] = 173 to 174 °C
• COc1cccc(-c2nc(-c3ccc(OCc4ccccc4)cc3OC)c[nH]2)c1.Cl [Example 130] = 236 to 238 °C
• COc1cc(-c2c[nH]c(-c3ccc(Cl)cc3)n2)ccc1OCc1ccccc1 [Example 4] = 228 to 229 °C

Could you share which melting point value was measured for COc1cc(OCc2ccc(C#N)cc2)ccc1-c1c[nH]c(-c2cc(Cl)cc(Cl)c2)n1.Cl ? > 250 °C

Would you mind doing COc1cc(OCc2ccc(Cl)cc2)ccc1-c1c[nH]c(-c2cc(Cl)cc(Cl)c2)n1.Cl [Example 118] as well? 233 to 241 °C

Continue with COc1cc(OCc2ccc(Cl)cc2F)ccc1-c1c[nH]c(-c2ccc(F)cc2)n1.Cl [Example 133] 259 to 260 °C

Here is the next compound: COc1cccc(-c2nc(-c3ccc(OCc4ccc(Br)cc4F)cc3OC)c[nH]2)c1.Cl [Example 99] 255 to 258 °C

Same read-out for COc1cc(-c2c[nH]c(-c3ccc(F)cc3)n2)ccc1OCc1ccc(C#N)cc1 [Example 56] ? 224 to 226 °C

Now consider COc1cc(-c2cnc(-c3cccs3)[nH]2)ccc1OCc1ccccc1 [Example 14] and answer again. 178 to 181 °C

COc1cc(OCc2ccc(C#N)cc2)ccc1-c1c[nH]c(-c2ccccc2)n1 [Example 12] , same question. 99 to 103 °C

What about this compound? COc1cc(OCc2ccccc2)ccc1-c1c[nH]c(-c2cccc(C)c2)n1.Cl 194 to 196 °C

Follow-up entry: COc1cc(OCc2ccc(Cl)cc2)ccc1-c1c[nH]c(-c2ccc(Cl)cc2)n1 [Example 82] 181 to 184 °C

Next compound: COc1cc(-c2c[nH]c(-c3ccc(C(=O)O)cc3)n2)ccc1OCc1ccccc1.Cl 241 to 243 °C

Origin of values: patent US8329739B2
